# Tested on: Enterococcus faecium (EFM)
# method: MIC, two-fold agar dilution (CLSI), clinical isolates
# Type: cell-based
# cond: strain EFM 15-3
outcome_measure: Anti-bacterial activity (MIC) (µg/mL)
Report as a plain number; the unit µg/mL is understood.

**Query** What Anti-bacterial activity (MIC) value was documented for this compound, O=C(C[C@@H](CC1CCCC1)C(=O)N1CC2(CC2)C[C@H]1C(=O)Nc1nncs1)NO [Example 74] ?
**Result** 4

**Query** And what about the compound CCCC[C@H](CN(O)C=O)C(=O)N1CCC[C@H]1C(=O)Nc1ccc(F)c[n+]1[O-] [LBM415, reference compound] ?
**Result** 4

**Query** Same lookup for CCCC[C@H](CC(=O)NO)C(=O)N1CC2(CCCC2)C[C@H]1C(=O)Nc1ncc(C)s1 [Example 79] , please.
**Result** 32

**Query** Similarly, O=C(C[C@@H](CC1CCCC1)C(=O)N1CC2(CC2)C[C@H]1C(=O)Nc1ccno1)NO [Example 70] ?
**Result** 32

**Query** # repeat for O=C(C[C@@H](CC1CCCC1)C(=O)N1CC2(CC2)C[C@H]1C(=O)Nc1nc(C(F)(F)F)cs1)NO [Example 73]
**Result** 0.125

**Query** Also O=C(C[C@@H](CC1CCCC1)C(=O)N1CC2(CC2)C[C@H]1C(=O)Nc1cccnn1)NO [Example 66] , if possible.
**Result** 16

**Query** Now this one: CCCC[C@H](CC(=O)NO)C(=O)N1CC2(CCCC2)C[C@H]1C(=O)Nc1cnccn1 [Example 77]
**Result** 32

**Query** Query CCCC[C@H](CC(=O)NO)C(=O)N1CC2(CCCC2)C[C@H]1C(=O)Nc1cc(C)on1 [Example 80] next
**Result** 8

**Query** // repeat for O=C(C[C@@H](CC1CCCC1)C(=O)N1CC2(CC2)C[C@H]1C(=O)Nc1nccs1)NO [Example 72] and report
**Result** 32

**Query** Now the compound Cc1cc(NC(=O)[C@@H]2CC3(CC3)CN2C(=O)[C@@H](CC(=O)NO)CC2CCCC2)no1 [Example 71]
**Result** 0.25

---

# Test system: Escherichia coli (including ESBLs, non-ESBLs)
# method: MIC, two-fold agar dilution (CLSI), clinical isolates
# Type: cell-based
# cond: clinical isolate ECO+ 15-4
Assignment: determine reported Anti-bacterial activity (MIC), strain ECO+ 15-4 for the given compounds.

**Query** What Anti-bacterial activity (MIC), strain ECO+ 15-4 value was documented for this compound, O=C(C[C@@H](CC1CCCC1)C(=O)N1CC2(CC2)C[C@@H]1c1nc2ccccc2[nH]1)NO ?
**Result** > 32 µg/mL

**Query** Another compound to look at: O=CN(O)C[C@@H](CC1CCCC1)C(=O)N1CC2(CC2)C[C@H]1C(=O)Nc1nccs1 (stereo in doubt)
**Result** 32 µg/mL

**Query** Cool, now CCCC[C@H](CC(=O)NO)C(=O)N1CC2(CC2)C[C@H]1c1nc2ccccc2n1CCN(C)C
**Result** > 32 µg/mL

---

# Tested on: Enterococcus faecalis (EFA)
# method: MIC, two-fold agar dilution (CLSI), clinical isolates
# Format: cell-based
# cond: strain EFA 15-2
Answer each item with its documented MIC (anti-bacterial activity).
# unit: µg/mL | format: bare number

**Query** Can you look up the measured MIC (anti-bacterial activity) of O=CN(O)C[C@@H](CC1CCCC1)C(=O)N1CC2(CC2)C[C@H]1C(=O)N1CCS(=O)(=O)CC1 for me?
**Result** 32

**Query** What do we get for Cc1cnc(NC(=O)[C@@H]2CC3(CC3)CN2C(=O)[C@H](CC2CCCC2)CN(O)C=O)s1 ?
**Result** 4

**Query** # repeat for CCCC[C@H](CN(O)C=O)C(=O)N1CC2(CC2)C[C@H]1C(=O)Nc1cc(C)on1
**Result** 16

**Query** How about this compound: O=CN(O)C[C@@H](CC1CCCC1)C(=O)N1CC2(CC2)C[C@H]1C(=O)Nc1ccncn1
**Result** 2

**Query** Let us now turn to O=CN(O)C[C@@H](CC1CCCC1)C(=O)N1CC2(CC2)C[C@H]1C(=O)Nc1cnccn1
**Result** 2

**Query** Continue with O=CN(O)C[C@@H](CC1CCCC1)C(=O)N1CC2(CC2)C[C@H]1C(=O)Nc1ccc(F)cn1
**Result** 2

**Query** Let us now turn to O=CN(O)C[C@@H](CC1CCCC1)C(=O)N1CC2(CC2)C[C@H]1C(=O)Nc1ccc(N2CCOCC2)cc1
**Result** 2

**Query** Also CCCC[C@H](CN(O)C=O)C(=O)N1CC2(CC2)C[C@H]1C(=O)Nc1nncs1 , if possible.
**Result** 32

**Query** And the next one, CCCC[C@H](CN(O)C=O)C(=O)N1CC2(CC2)C[C@H]1c1nc2ccccc2n1CCN(C)C ?
**Result** 32

**Query** Entry to check: CCCC[C@H](CN(O)C=O)C(=O)N1CC2(CC2)C[C@H]1C(=O)NC1CC1
**Result** 32

**Query** CCCC[C@H](CN(O)C=O)C(=O)N1CC2(CC2)C[C@H]1C(=O)Nc1ccncn1 ?
**Result** 4

**Query** Now this one: CC(C)(C)c1cc(NC(=O)[C@@H]2CC3(CC3)CN2C(=O)[C@H](CC2CCCC2)CN(O)C=O)no1
**Result** 4

**Query** And what about the compound O=CN(O)C[C@@H](CC1CCCC1)C(=O)N1CC2(CC2)C[C@H]1C(=O)Nc1cc[nH]n1 ?
**Result** 32

**Query** Try Cc1csc(NC(=O)[C@@H]2CC3(CC3)CN2C(=O)[C@H](CC2CCCC2)CN(O)C=O)n1 next.
**Result** 1

**Query** Item: CCCC[C@H](CN(O)C=O)C(=O)N1CC2(CC2)C[C@H]1C(=O)Nc1cnccn1
**Result** 1

**Query** Do the same for CCCC[C@H](CN(O)C=O)C(=O)N1CC2(CC2)C[C@H]1C(=O)Nc1nc(C)cs1 please
**Result** 8

**Query** O=CN(O)C[C@@H](CC1CCCC1)C(=O)N1CC2(CC2)C[C@H]1C(=O)NC1CC1 , same question.
**Result** 8

**Query** Same thing, different compound: Cc1cc(NC(=O)[C@@H]2CC3(CC3)CN2C(=O)[C@H](CC2CCCC2)CN(O)C=O)no1
**Result** 4

**Query** Note, next up: COC(=O)c1sccc1NC(=O)[C@@H]1CC2(CC2)CN1C(=O)[C@H](CC1CCCC1)CN(O)C=O
**Result** 4

**Query** Further, for CCCC[C@H](CN(O)C=O)C(=O)N1CC2(CC2)C[C@H]1C(=O)Nc1nccs1 ?
**Result** 2

**Query** Can you check O=CN(O)C[C@@H](CC1CCCC1)C(=O)N1CC2(CC2)C[C@H]1C(=O)Nc1ncco1 next?
**Result** 16

**Query** Could you do the same for O=CN(O)C[C@@H](CC1CCCC1)C(=O)N1CC2(CC2)C[C@H]1C(=O)Nc1ncccc1F , please?
**Result** 4

**Query** Do the same for CCCC[C@H](CN(O)C=O)C(=O)N1CC2(CC2)C[C@H]1C(=O)Nc1ccno1 please
**Result** 8

**Query** Same lookup for CCCC[C@H](CN(O)C=O)C(=O)N1CC2(CC2)C[C@H]1C(=O)Nc1ccc(N2CCOCC2)cc1 , please.
**Result** 8

**Query** Then O=CN(O)C[C@@H](CC1CCCC1)C(=O)N1CC2(CC2)C[C@H]1C(=O)Nc1ccno1 ?
**Result** 4

---

# Tested on: methicillin-sensitive Staphylococcus aureus (MSSA)
# method: MIC, two-fold agar dilution (CLSI), clinical isolates
# Assay type: cell-based
# cond: clinical isolate MSSA 15-5
# Excerpt: 1. The invention adopts the two-fold agar dilution method recommended by the operating procedure of antimicrobial susceptibility testing set by American Clinical and Laboratory Standards Institute (CLSI) to determine the Minimum Inhibitory Concentration (MIC) of the test samples against the tested strains.
outcome_measure: Anti-bacterial activity (MIC), strain MSSA 15-5

**Query** Recorded Anti-bacterial activity (MIC), strain MSSA 15-5 for CCCC[C@H](CC(=O)NO)C(=O)N1CC2(CC2)C[C@H]1C(=O)Nc1ccc(F)cn1 [Example 46] , please?
**Result** 1 µg/mL

**Query** Can you check O=CN(O)C[C@@H](CC1CCCC1)C(=O)N1CC2(CC2)C[C@H]1C(=O)Nc1nccs1 (stereo in doubt) [Example 40] next?
**Result** 0.5 µg/mL

**Query** Cool, now O=C(C[C@@H](CC1CCCC1)C(=O)N1CC2(CC2)C[C@H]1C(=O)Nc1nncs1)NO [Example 74]
**Result** 2 µg/mL

**Query** Follow-up entry: CCCC[C@H](CC(=O)NO)C(=O)N1CC2(CC2)C[C@H]1c1nc2ccccc2n1CCN(C)C [Example 60]
**Result** > 32 µg/mL

**Query** Can you handle O=C(C[C@@H](CC1CCCC1)C(=O)N1CC2(CC2)C[C@H]1C(=O)Nc1nc(C(F)(F)F)cs1)NO [Example 73] next?
**Result** 0.03 µg/mL

**Query** How about this compound: CCCC[C@H](CC(=O)NO)C(=O)N1CC2(CC2)C[C@H]1C(=O)Nc1ncccc1F [Example 49]
**Result** > 32 µg/mL

**Query** Again, but for O=C(C[C@@H](CC1CCCC1)C(=O)N1CC2(CC2)C[C@H]1C(=O)Nc1ccno1)NO [Example 70]
**Result** 0.25 µg/mL

**Query** Do the same for O=C(C[C@@H](CC1CCCC1)C(=O)N1CC2(CC2)C[C@H]1C(=O)Nc1cccnn1)NO [Example 66] please
**Result** 0.5 µg/mL

**Query** Do the same for CCCC[C@H](CC(=O)NO)C(=O)N1CC2(CC2)C[C@H]1C(=O)Nc1ccncn1 [Example 45] please
**Result** 1 µg/mL

**Query** Same again, this time with Cc1cnc(NC(=O)[C@@H]2CC3(CC3)CN2C(=O)[C@@H](CC(=O)NO)CC2CCCC2)s1 [Example 65]
**Result** 0.015 µg/mL

**Query** Consider next the compound O=C(C[C@@H](CC1CCCC1)C(=O)N1CC2(CC2)C[C@H]1C(=O)NC1CC1)NO [Example 68] in the same way.
**Result** > 32 µg/mL
